- target or system: T1, human collagen type I, acid soluble, extracted from placenta (Sigma C7774) (human, UniProt P02452 162-1218; P08123 80-1119)
- T1 construct: tissue extract, gelled and dried in wells; also called dried human collagen; h-Collagen
- T1 sequence (P02452 162-1218 limits assumed, chain 1 of 2): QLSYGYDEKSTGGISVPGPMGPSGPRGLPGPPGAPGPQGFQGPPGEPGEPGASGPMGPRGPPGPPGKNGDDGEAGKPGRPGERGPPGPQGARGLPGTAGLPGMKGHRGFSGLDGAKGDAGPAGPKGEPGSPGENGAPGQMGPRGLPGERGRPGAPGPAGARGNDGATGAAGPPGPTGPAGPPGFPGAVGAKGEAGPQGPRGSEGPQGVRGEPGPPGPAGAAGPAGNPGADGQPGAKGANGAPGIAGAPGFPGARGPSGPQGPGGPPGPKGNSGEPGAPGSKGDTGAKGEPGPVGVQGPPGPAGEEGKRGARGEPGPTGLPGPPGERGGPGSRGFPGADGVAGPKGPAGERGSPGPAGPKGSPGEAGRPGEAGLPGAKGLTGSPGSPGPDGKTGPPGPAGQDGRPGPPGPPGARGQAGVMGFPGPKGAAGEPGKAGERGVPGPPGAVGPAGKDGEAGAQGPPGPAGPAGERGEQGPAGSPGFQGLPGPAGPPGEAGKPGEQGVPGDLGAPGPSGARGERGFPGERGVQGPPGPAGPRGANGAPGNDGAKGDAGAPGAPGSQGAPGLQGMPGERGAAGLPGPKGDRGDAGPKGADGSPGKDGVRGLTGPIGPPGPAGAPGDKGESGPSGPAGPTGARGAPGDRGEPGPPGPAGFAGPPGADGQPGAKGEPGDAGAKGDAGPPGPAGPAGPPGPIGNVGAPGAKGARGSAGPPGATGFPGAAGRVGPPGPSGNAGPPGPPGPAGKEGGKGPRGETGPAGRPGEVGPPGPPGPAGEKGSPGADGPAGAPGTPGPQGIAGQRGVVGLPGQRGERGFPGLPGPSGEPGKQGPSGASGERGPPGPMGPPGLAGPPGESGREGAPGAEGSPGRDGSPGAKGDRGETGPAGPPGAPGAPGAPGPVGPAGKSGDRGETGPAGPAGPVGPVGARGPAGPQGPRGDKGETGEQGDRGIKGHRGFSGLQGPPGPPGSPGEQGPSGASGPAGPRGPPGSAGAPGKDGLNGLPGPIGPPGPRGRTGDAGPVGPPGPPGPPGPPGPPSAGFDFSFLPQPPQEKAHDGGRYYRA
- T1 sequence (P08123 80-1119 limits assumed, chain 2 of 2): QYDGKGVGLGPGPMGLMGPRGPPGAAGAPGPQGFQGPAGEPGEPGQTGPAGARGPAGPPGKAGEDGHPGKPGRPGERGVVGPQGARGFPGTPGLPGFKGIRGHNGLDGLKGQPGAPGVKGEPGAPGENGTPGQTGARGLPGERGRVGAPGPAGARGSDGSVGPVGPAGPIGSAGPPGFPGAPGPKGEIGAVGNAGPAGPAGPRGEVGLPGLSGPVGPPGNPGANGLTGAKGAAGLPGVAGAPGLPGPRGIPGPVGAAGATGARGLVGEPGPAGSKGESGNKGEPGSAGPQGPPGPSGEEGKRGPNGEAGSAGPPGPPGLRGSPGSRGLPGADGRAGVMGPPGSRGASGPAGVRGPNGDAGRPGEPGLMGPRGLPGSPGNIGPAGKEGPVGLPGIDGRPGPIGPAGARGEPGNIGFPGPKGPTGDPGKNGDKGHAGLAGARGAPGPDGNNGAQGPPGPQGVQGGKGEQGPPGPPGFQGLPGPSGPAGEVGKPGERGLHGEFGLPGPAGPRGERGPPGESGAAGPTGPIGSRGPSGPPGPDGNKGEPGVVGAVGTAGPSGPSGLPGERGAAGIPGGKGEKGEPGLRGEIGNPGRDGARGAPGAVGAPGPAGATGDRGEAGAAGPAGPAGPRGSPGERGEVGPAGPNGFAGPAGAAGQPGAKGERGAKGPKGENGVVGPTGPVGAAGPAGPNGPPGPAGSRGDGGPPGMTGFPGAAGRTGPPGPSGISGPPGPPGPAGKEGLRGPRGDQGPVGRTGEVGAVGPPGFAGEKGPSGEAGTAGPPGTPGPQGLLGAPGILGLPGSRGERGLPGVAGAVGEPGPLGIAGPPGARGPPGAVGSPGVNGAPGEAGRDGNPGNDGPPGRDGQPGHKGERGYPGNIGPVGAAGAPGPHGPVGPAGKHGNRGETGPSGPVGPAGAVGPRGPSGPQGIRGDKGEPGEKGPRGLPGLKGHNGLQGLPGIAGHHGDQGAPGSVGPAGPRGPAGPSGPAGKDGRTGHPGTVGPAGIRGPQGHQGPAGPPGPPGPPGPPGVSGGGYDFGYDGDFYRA
- procedure details: dried collagen assay
Bridge positions count the residues as written; N and C are the ends. Square brackets hold non-standard residues; d marks the D form. Primed or numbered codes have the meaning given here. Side chains are listed from the residue outwards. Ends that are not written are not given here. Bip = N[C@@H](Cc1ccc(-c2ccccc2)cc1)C(=O)O; Phe(4-NH2) = Nc1ccc(C[C@H](N)C(=O)O)cc1; Gd^T″ = GdDTPA-thiourea
property name: % bound (%)

{Gd^T″}-GK([Gly-Gd^T″])WH[dC]TTK(Gd^T″)FPHHYCLY[Bip] (disulfide 5-14) [Compound ID 1019]; 14

(A) {Gd^T″}-GQWHCTTLFPNHYCLYG (disulfide 5-14 (inferred)) [Compound ID 923]
(B) GQWTCSGDAYTWHCNYE (disulfide 5-14 (inferred); not fully specified (N-terminus, C-terminus)) [Compound ID 838]
(C) {Gd^T″}-GVK([Val-Gly-Gd^T″])WHCTTYFPHHYCLYG (disulfide 6-15 (inferred); not fully specified (C-terminus)) [Compound ID 982]
(D) {Gd^T″}-GQWHCTTD[Phe(4-NH2)](Gd^T″)PHHYCLYG (disulfide 5-14 (inferred)) [Compound ID 885]
Put the items in order so that reported % bound rises from first to last. Sort and list the labels as requested. D, A, C, B
